Attribution: patent US7381824B2

Biological target: human vascular endothelial growth factor receptor 2 (VEGF-R2) (Homo sapiens, UniProt P35968, DEL940-989/E990V)
Construct: VEGF-R2D50 contains residues 806-939 and 990-1171; made in house; host or cells: baculovirus/insect cell system
Sequence (P35968 with tags, fused parts or gaps DEL940-989/E990V limits assumed): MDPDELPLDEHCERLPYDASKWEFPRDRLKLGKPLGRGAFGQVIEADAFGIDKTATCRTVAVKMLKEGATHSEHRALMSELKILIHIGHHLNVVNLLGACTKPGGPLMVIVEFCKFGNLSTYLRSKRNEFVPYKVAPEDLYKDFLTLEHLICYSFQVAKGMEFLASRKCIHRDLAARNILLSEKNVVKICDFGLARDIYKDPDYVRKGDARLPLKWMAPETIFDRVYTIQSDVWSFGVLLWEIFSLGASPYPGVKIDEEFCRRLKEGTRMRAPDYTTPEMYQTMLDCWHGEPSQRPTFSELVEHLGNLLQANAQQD
Assay: VEGF-R2 coupled spectrophotometric assay (FLVK, unphosphorylated VEGF-R2D50)
Format: biochemical
Conditions: unphosphorylated VEGF-R2D50 (FLVK)
pKi: −log10 of the molar value.
Quantity Name: pKi

Solved cases below.
INSERT INTO assay_data (compound, measurement) VALUES
  ('Cc1oc2cc(Oc3ccnc4cc(OCCBr)ccc34)ccc2c1C(=O)NC1CC1 [Example 93]', '> 9.00'),
  ('CNC(=O)c1c(C)oc2cc(Oc3ccnc4cc(-c5nccs5)ccc34)ccc12 [Example 30]', '> 9.00');

Please examine the following record next.
Task: Any idea what its pKi is? The compound is CNC(=O)c1c(C)n(C)c2cc(Oc3ccnc4cc(O)ccc34)ccc12 [Example 76]
Result: < 8.00
